Where do the numbers come from? From paper PMC11202169.

# activity at 1 µM per record follows
- target entity: hSULT1A1 (Homo sapiens)
- Construct: 6-histidine tag (N); TEV site (N); made in house; host or cells: Escherichia coli BL21 (DE3), pET29a(+)
- Sequence (P50225 whole entry): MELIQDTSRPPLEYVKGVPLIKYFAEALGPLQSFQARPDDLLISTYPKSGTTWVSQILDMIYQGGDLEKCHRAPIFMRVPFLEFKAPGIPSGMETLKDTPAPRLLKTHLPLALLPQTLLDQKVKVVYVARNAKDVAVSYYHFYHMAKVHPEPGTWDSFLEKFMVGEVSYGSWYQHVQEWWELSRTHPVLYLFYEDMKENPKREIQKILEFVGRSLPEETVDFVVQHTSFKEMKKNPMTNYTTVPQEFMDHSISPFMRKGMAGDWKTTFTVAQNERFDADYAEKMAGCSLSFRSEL
- method description: Fluorescence-based microplate inhibition assay, hSULT1A1-catalyzed HN-241 4-O-sulfation;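 also: reaction started with 200 µM PAPS at 37 °C, fluorescence read continuously (Ex 350 nm, Em 450 nm), activity expressed relative to DMSO-only control without inhibitor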
- Assay type: biochemical
- condition info: test compound 1 μM, HN-241 1 μM, 15 min; read-out: Residue activity (%) hSULT1A1
Your answer should be a plain number; it is taken to be in %.

// solved cases for activity at 1 µM follow
INSERT INTO results (compound, readout_name, unit_annotation, test_result) VALUES
  ('C[C@@H]1[C@H]2[C@H](O[C@@H]3O[C@H](CO)[C@@H](O)[C@H](O)[C@H]3O)OC=C(C(=O)O)[C@H]2C[C@@H]1O', 'activity at 1 µM', '%', 128),
  ('COc1cc2c(c(OC)c1OC)C(=O)c1c(cc(C)c(O)c1OC)C2=O', 'activity at 1 µM', '%', 1.84),
  ('C[C@@H]1O[C@@H](OC[C@H]2O[C@@H](Oc3cc(O)c4c(c3)O[C@H](c3ccc(O)c(O)c3)CC4=O)[C@H](O)[C@@H](O)[C@@H]2O)[C@H](O)[C@H](O)[C@H]1O', 'activity at 1 µM', '%', 65.5);

Ask: Can you look up the measured activity at 1 µM of O=c1cc(-c2ccc(Oc3c(O)cc4oc(-c5ccc(O)cc5)cc(=O)c4c3O)cc2)oc2cc(O)cc(O)c12 for me?
Result: 0

Ask: I have this compound here, COc1c2occc2cc2ccc(=O)oc12 , and I need its recorded activity at 1 µM.
Result: 107

Ask: GET /values?readout=activity at 1 µM&item= C/C=C(/C)C(=O)O[C@H]1c2cc(OC)c(OC)c(OC)c2-c2c(cc3c(c2OC)OCO3)C[C@H](C)[C@]1(C)O
Result: 109

Ask: # get_value(readout='activity at 1 µM', item= C=C(C)[C@@H]1CC[C@]2(C(=O)O)CC[C@]3(C)[C@H](CC[C@@H]4[C@@]5(C)CC[C@@H](O)C(C)(C)[C@@H]5CC[C@]43C)[C@@H]12 [Epibetulinic acid] )
Result: 106

Ask: Param item = Cc1cc(O)c2c(c1)C(=O)c1cccc(O)c1C2=O ; retrieve measured activity at 1 µM.
Result: 3.52
